Item-by-item account of kinase still bound, per cent of control
molecular target: MAPK7 (human) (UniProt Q13164); experiment: KINOMEscan competition binding; details: compound 10.0 µM
Sequence (Q13164 whole entry, looked up): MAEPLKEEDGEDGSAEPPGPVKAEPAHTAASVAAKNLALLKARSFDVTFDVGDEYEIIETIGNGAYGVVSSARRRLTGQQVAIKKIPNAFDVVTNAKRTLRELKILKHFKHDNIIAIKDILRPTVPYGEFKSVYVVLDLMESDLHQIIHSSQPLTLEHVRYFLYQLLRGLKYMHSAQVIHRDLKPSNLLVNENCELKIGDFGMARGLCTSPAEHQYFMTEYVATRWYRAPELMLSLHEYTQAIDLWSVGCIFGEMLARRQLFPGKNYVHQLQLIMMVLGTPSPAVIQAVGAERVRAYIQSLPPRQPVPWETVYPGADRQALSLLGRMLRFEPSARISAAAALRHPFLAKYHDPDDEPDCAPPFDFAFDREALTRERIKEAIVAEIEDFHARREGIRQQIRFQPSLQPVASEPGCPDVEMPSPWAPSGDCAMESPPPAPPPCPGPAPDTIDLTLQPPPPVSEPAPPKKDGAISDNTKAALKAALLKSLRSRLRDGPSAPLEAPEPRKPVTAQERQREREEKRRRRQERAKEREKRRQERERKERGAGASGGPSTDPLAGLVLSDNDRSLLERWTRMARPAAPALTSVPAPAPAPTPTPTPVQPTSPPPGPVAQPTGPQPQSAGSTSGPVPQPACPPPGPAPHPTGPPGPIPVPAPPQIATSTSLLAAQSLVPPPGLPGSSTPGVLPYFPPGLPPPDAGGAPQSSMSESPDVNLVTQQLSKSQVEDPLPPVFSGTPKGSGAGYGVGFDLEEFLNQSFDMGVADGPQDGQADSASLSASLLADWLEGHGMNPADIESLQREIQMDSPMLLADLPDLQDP
reported endpoint: kinase still bound, per cent of control (%)

structure	tgt	reported endpoint	result
CCOc1cc2ncc(C#N)c(Nc3ccc(OCc4ccccn4)c(Cl)c3)c2cc1NC(=O)/C=C/CN(C)C	MAPK7 (human) (UniProt Q13164)	kinase still bound, per cent of control	100
Cc1cc([C@@H](C)Nc2ccccc2C(=O)O)c2nc(N3CCOCC3)cc(=O)n2c1	MAPK7 (human) (UniProt Q13164)	kinase still bound, per cent of control	100
OCCCNc1cc(-c2ccnc(Nc3cccc(Cl)c3)n2)ccn1	MAPK7 (human) (UniProt Q13164)	kinase still bound, per cent of control	100
CCC(=O)N1CCN(c2ccc(-n3c(=O)ccc4cnc5ccc(-c6cnc7ccccc7c6)cc5c43)cc2C(F)(F)F)CC1	MAPK7 (human) (UniProt Q13164)	kinase still bound, per cent of control	100
O=C(NC1CC1)c1cccc(-c2ccc3c(NC(=O)C4CC4)n[nH]c3c2)c1	MAPK7 (human) (UniProt Q13164)	kinase still bound, per cent of control	93
Cc1ccc(C(=O)Nc2cccc(C(F)(F)F)c2)cc1Nc1cncc(C(N)=O)c1	MAPK7 (human) (UniProt Q13164)	kinase still bound, per cent of control	100

These data points were gathered from the kinase profiling compilation of Christmann-Franck et al. (2016).
